The reported measurements were obtained from ChEMBL document CHEMBL4152296.

Test system: MDCK
PROTOCOL DESCRIPTION: Cytotoxicity against MDCK cells assessed as reduction in cell viability measured after 3 to 6 days by MTS assay
Type: cell-based, Canis lupus familiaris
PARTICULARS: dog
Attribute: CC50

Consider the following illustrative entries.
# SMILES, CC50
rows = [
    ("CCCN1C(N)=NC(N)=NC12CCN(C(=O)C1CC1)CC2", "> 100 µM"),
    ("Cc1ccc(C(=O)N2CCC3(CC2)N=C(N)N=C(N)N3c2cccc(Cl)c2)cc1", "18 µM"),
    ("CC(C)(C)OC(=O)N1CCC2(CC1)N=C(N)N=C(N)N2Cc1cccc(Cl)c1", "> 100 µM"),
    ("CCCN1C(N)=NC(N)=NC12CCN(C(=O)c1c(C)noc1C)CC2", "> 100 µM"),
]

Alright, here's another compound for you.
Query block: Tell me the measured CC50 of NC1=NC2(CCN(C(=O)c3ccc4ccccc4c3)CC2)N(c2cccc(Cl)c2)C(N)=N1 , please.
Result block: > 100 µM

* * *

TESTED ON: Dihydrofolate reductase (Homo sapiens, UniProt P00374)
Sequence (P00374 whole entry): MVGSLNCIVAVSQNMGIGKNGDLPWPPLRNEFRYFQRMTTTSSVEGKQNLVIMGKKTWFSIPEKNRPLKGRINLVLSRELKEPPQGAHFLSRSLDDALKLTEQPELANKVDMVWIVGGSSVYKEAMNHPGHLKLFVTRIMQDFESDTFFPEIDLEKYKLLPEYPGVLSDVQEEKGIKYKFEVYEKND
PROTOCOL DESCRIPTION: Binding affinity to human recombinant DHFR using dihydrofolate as substrate after 180 secs by spectrophotometric method
Attribute: pKi
Recall that pKi is obtained by taking minus log10 of the concentration measured in molar.

Consider the following illustrative entries.
# SMILES, pKi
data = [
    ("Cc1ccc(C(=O)N2CCC3(CC2)N=C(N)N=C(N)N3c2cccc(Cl)c2)cc1", 6.19),
    ("NC1=NC2(CCN(C(=O)Nc3ccc(F)cc3)CC2)N(c2cccc(Cl)c2)C(N)=N1", 6.28),
]

Query block: Tell me the measured pKi of CCS(=O)(=O)N1CCC2(CC1)N=C(N)N=C(N)N2CCOC , please.
Result block: 5.85

* * *

PROTOCOL DESCRIPTION: Cytotoxicity against MDCK cells assessed as alterations in normal cell morphology measured after 3 to 6 days by microscopic analysis
Format: cell-based, Canis lupus familiaris
PARTICULARS: dog
Attribute: MCC

# COMPOUND, MCC
records = [
    ("NC1=NC2(CCN(C(=O)C3CCC3)CC2)N(c2cccc(Cl)c2)C(N)=N1", "≥ 20 µM"),
    ("NC1=NC2(CCN(C(=O)Nc3ccc(F)cc3)CC2)N(c2cccc(Cl)c2)C(N)=N1", "≥ 0.16 µM"),
    ("CCCN1C(N)=NC(N)=NC12CCN(C(=O)c1c(C)noc1C)CC2", "> 100 µM"),
]

Query block: Tell me the measured MCC of CCCN1C(N)=NC(N)=NC12CCN(S(=O)(=O)CCC)CC2 , please.
Result block: > 100 µM

Query block: Tell me the measured MCC of COc1cccc(N2C(N)=NC(N)=NC23CCN(C(=O)c2ccc(C(F)(F)F)cc2C)CC3)c1 , please.
Result block: > 100 µM

Query block: Tell me the measured MCC of NC(=O)c1ncn([C@@H]2O[C@H](CO)[C@@H](O)[C@H]2O)n1 [RIBAVIRIN] , please.
Result block: ≥ 20 µM

* * *

PROTOCOL DESCRIPTION: Cytotoxicity against human HeLa cells assessed as alterations in normal cell morphology measured after 3 to 6 days by microscopic analysis
Assay type: cell-based
QUANTITY NAME: MCC

# SMILES, EXPERIMENTAL VALUE
measured = [
    ("Cc1ccc(C(=O)N2CCC3(CC2)N=C(N)N=C(N)N3c2cccc(Cl)c2)cc1", "≥ 100 µM"),
    ("COCCN1C(N)=NC(N)=NC12CCN(S(=O)(=O)c1ccccc1)CC2", "> 100 µM"),
    ("CC(C)(C)OC(=O)N1CCC2(CC1)N=C(N)N=C(N)N2Cc1cccc(Cl)c1", "> 100 µM"),
    ("CCCN1C(N)=NC(N)=NC12CCN(S(=O)(=O)CCC)CC2", "> 100 µM"),
]

Alright, here's another compound for you.
Query block: Tell me the measured MCC of NC1=NC2(CCN(C(=O)c3ccc4ccccc4c3)CC2)N(c2cccc(Cl)c2)C(N)=N1 , please.
Result block: ≥ 100 µM
